Item-by-item account of IC50
# System: A-549 (monolayer culture of a human lung carcinoma)
# Protocol details: in vitro cytotoxic assay, A-549 cells
# Format: cell-based
# Measurement conditions: A549, 72 h, three days of incubation, Crystal Violet staining, approximate IC50
# Method: Cells were maintained in logarithmic phase of growth in Eagle's Minimum Essential Medium, with Earle's Balanced Salts, with 2.0 mM L-glutamine, with non-essential amino acids, without sodium bicarbonate (EMEM/neaa); supplemented with 10% Fetal Calf Serum (FCS), 10^−2 M sodium bicarbonate and 0,1 g/l penicillin-G+streptomycin sulfate. […]
The reply should contain only the number, in nM.

[[record]]
compound = "C=C1CCC[C@H]2[C@@](C)(CC[C@@]3(C)CCn4cnc5ncnc(c54)N3O)[C@H](C)CC[C@@]12C [Asmarine B]"
study_target = "A-549 (monolayer culture of a human lung carcinoma)"
measurement_kind = "IC50"
measure_unit = "nM"
assay_result = 120


Switching to the query record.
Measured on A-549 (monolayer culture of a human lung carcinoma), C=C1CCC[C@@H]2[C@@](C)(CC[C@@]3(C)CCn4cnc5ncnc(c54)N3O)[C@H](C)CC[C@@]12C [Asmarine A] has a documented IC50 of 1180
